- Test system: TT cells
- METHOD_NOTES: TT cell proliferation activity (Cell-Titer Glo)
- Type: cell-based
- MEASUREMENT_PARAMETERS: TT human thyroid carcinoma cells, 120 h
- Protocol: 4. Determination of TT Cell Proliferation Activity of Compounds TT cells, a human thyroid carcinoma cell line, were cultured in Ham's F-12K medium supplemented with 15% fetal bovine serum (FBS, purchased from Biological Industries, BI) and 1% penicillin/streptomycin double antibody (P/S, purchased from Life Technology) under conditions of 37° C. and 5% CO2. […]
IC50 listing for selected compounds.
QUANTITY_KIND: IC50 (nM)

                                    compound  readout_value
 0  Cn1cc(-c2cc(-c3ccc(N4CC5CC(C4)N5Cc4ccccc4S(C)(=O)=O)nc3)c3c(C#N)cnn3c2)cn1 [Example 43]           16.4
 1  CSc1ccc(CN2CCN(c3ccc(-c4cc(-c5cnn(C)c5)cn5ncc(C#N)c45)cn3)CC2)nc1 [Example 9]           37.3
 2  CSc1cc(CN2C3CC2CN(c2ccc(-c4cc(-c5cnn(C(F)F)c5)cn5ncc(C#N)c45)cn2)C3)ccn1 [Example 72]           24.9
 3  CS(=O)(=O)c1cccc(CN2CCN(c3ccc(-c4cc(-c5cnn(C(F)F)c5)cn5ncc(C#N)c45)cn3)CC2)c1 [Example 47]           53.1
 4  CS(=O)(=O)c1ccc(CN2C3CC2CN(c2ccc(-c4cc(-c5cnn(C(F)F)c5)cn5ncc(C#N)c45)cn2)C3)cn1 [Example 77]           23.1
 5  CS(=O)(=O)c1cccc(CN2C3CC2CN(c2ccc(-c4cc(N5CC(F)(F)C5)cn5ncc(C#N)c45)cn2)C3)c1 [Example 64]           42.2
 6  CSc1ccc(CN2C3CC2CN(c2ccc(-c4cc(-c5cnn(C)c5)cn5ncc(C#N)c45)cn2)C3)nc1 [Example 22]           12.9
 7  CS(=O)(=O)c1ccc(CN2C3CC2CN(c2ccc(-c4cc(-c5cnn(C(F)F)c5)cn5ncc(C#N)c45)cn2)C3)cc1 [Example 45]           22.7
 8  Cn1cc(-c2cc(-c3ccc(N4CCN(Cc5ccc(S(C)(=O)=O)cc5)CC4)nc3)c3c(C#N)cnn3c2)cn1 [Example 16]           36.7
 9  CS(=O)(=O)c1ccc(CN2C3CC2CN(c2ccc(-c4cc(-c5cn[nH]c5)cn5ncc(C#N)c45)cn2)C3)cc1 [Example 53]           14.6
10  Cn1cc(-c2cc(-c3ccc(N4CCN(Cc5cccc(S(C)(=O)=O)c5)CC4)nc3)c3c(C#N)cnn3c2)cn1 [Example 15]           17.8
11  CC1=C(C(=O)N2CCN(c3ccc(-c4cc(-c5cnn(C)c5)cn5ncc(C#N)c45)cn3)CC2)CCC1 [Example 6]           13.8
12  CS(=O)(=O)c1ccc(CN2C3CC2CN(c2ccc(-c4cc(-c5cnn(C(F)F)c5)cn5ncc(C#N)c45)cn2)C3)nc1 [Example 78]           28.2
13  COCC1=C(C(=O)N2CCN(c3ccc(-c4cc(-c5cnn(C)c5)cn5ncc(C#N)c45)cn3)CC2)CCC1 [Example 12]            6.3
14  CN(C)C(=S)N1CCN(c2ccc(-c3cc(-c4cnn(C)c4)cn4ncc(C#N)c34)cn2)CC1 [Example 8]             14
15  CSc1ccc(CN2CCN(c3ccc(-c4cc(-c5cnn(C)c5)cn5ncc(C#N)c45)cn3)CC2)cn1 [Example 10]           23.8
16  CC1(O)CN(c2cc(-c3ccc(N4CC5CC(C4)N5Cc4cccc(S(C)(=O)=O)c4)nc3)c3c(C#N)cnn3c2)C1 [Example 65]           24.1
17  CSc1ccc(CN2C3CC2CN(c2ccc(-c4cc(-c5cnn(C(F)F)c5)cn5ncc(C#N)c45)cn2)C3)cn1 [Example 60]           18.5
18  CS(=O)(=O)c1ccccc1CN1C2CC1CN(c1ccc(-c3cc(-c4cnn(C(F)F)c4)cn4ncc(C#N)c34)cn1)C2 [Example 56]           39.9
19  COc1ccc(CN2CCN(c3ccc(-c4cc(N5CC(C#N)C5)cn5ncc(C#N)c45)cn3)CC2)cn1 [Example 32]           48.7
20  Cn1cc(-c2cc(-c3ccc(N4CC5CC(C4)N5Cc4ccc(S(C)(=O)=O)cc4)nc3)c3c(C#N)cnn3c2)cn1 [Example 25]           5.96
21  Cn1cc(-c2cc(-c3cnc(N4CC5CC(C4)N5Cc4ccc(S(C)(=O)=O)cc4)cn3)c3c(C#N)cnn3c2)cn1 [Example 41]           18.2
22  CSCCN1CCN(c2ccc(-c3cc(-c4cnn(C)c4)cn4ncc(C#N)c34)cn2)CC1 [Example 21]           27.9
23  COc1ccc(CN2C3CC2CN(c2ccc(-c4cc(N5CC(C)(O)C5)cn5ncc(C#N)c45)cn2)C3)cn1 [Example 7]           7.41
24  Cn1cc(-c2cc(-c3ccc(N4CC5CC(C4)N5Cc4ccc(S(C)(=O)=O)cn4)nc3)c3c(C#N)cnn3c2)cn1 [Example 79]           21.3
25  COc1ccc(CN2C3CC2CN(c2cnc(-c4cc(-c5cnn(C)c5)cn5ncc(C#N)c45)cn2)C3)cn1 [Example 3]           1.01
26  CS(=O)(=O)c1cccc(CN2C3CC2CN(c2ccc(-c4cc(-c5cnn(C(F)F)c5)cn5ncc(C#N)c45)cn2)C3)c1 [Example 55]           15.4
27  COc1ccc(CN2C3CC2CN(c2ccc(-c4cc(N5CC(F)(F)C5)cn5ncc(C#N)c45)cn2)C3)nc1 [Example 46]           37.6

----------
- METHOD_NOTES: Pharmacokinetic data of compounds in male SD rats
- Format: in vivo
- MEASUREMENT_PARAMETERS: rat, po, intragastric, 5 mg/kg, suspension MC 0.5%, plasma
QUANTITY_KIND: half-life (h)

In [3]: df
Out[3]:
                               entry_smiles  quantity_kind  unit_of_measurement  readout_value
0  CS(=O)(=O)c1ccc(CN2C3CC2CN(c2ccc(-c4cc(-c5cnn(C(F)F)c5)cn5ncc(C#N)c45)cn2)C3)cc1      half-life                    h           3.21
1  CS(=O)(=O)c1ccc(CN2C3CC2CN(c2ccc(-c4cc(-c5cnn(C(F)(F)F)c5)cn5ncc(C#N)c45)cn2)C3)cc1      half-life                    h           2.78
2  CSc1ccc(CN2C3CC2CN(c2ccc(-c4cc(-c5cnn(C(F)F)c5)cn5ncc(C#N)c45)cn2)C3)cn1      half-life                    h           7.45
3  COc1ccc(CN2C3CC2CN(c2ccc(-c4cc(N5CC(C)(O)C5)cn5ncc(C#N)c45)cn2)C3)cn1      half-life                    h           3.53
4  Cn1cc(-c2cc(-c3ccc(N4CCN(Cc5cccc(S(C)(=O)=O)c5)CC4)nc3)c3c(C#N)cnn3c2)cn1      half-life                    h           3.56
5  COc1ccc(CN2CCN(c3ccc(-c4cc(N5CC(F)(F)C5)cn5ncc(C#N)c45)cn3)CC2)cn1      half-life                    h            4.9
6  CSc1ccc(CN2CCN(c3ccc(-c4cc(-c5cnn(C)c5)cn5ncc(C#N)c45)cn3)CC2)nc1      half-life                    h           2.02
7  CSc1ccc(CN2CCN(c3ccc(-c4cc(-c5cnn(C)c5)cn5ncc(C#N)c45)cn3)CC2)cn1      half-life                    h           3.38
8  Cn1cc(-c2cc(-c3ccc(N4CCN(Cc5ccc(S(C)(=O)=O)cc5)CC4)nc3)c3c(C#N)cnn3c2)cn1      half-life                    h           4.08

----------
- METHOD_NOTES: Pharmacokinetic data of compounds in male SD rats
- Format: in vivo
- MEASUREMENT_PARAMETERS: rat, po, intragastric, 5 mg/kg, suspension MC 0.5%, plasma
- Protocol: 6. Pharmacokinetic Data of Compounds Male SD rats (Beijing Vital River Laboratory Animal Technology Co., Ltd) were divided into groups. 3 in each group, received intragastric administration with the suspension of the test sample (5 mg/kg, suspensions MC 0.5%), respectively. Animals were fasted overnight prior to the experiment from 10 h before dosing to 4 h after dosing. […] Samples in the plasma were extracted using protein precipitation and the extracts were analyzed by LC/MS.
Categories are assigned from the measured AUC(0-inf) using these intervals: bin 0 = under 10000 ng·h/mL, bin 1 = from 10000 ng·h/mL up to 30000 ng·h/mL, bin 2 = 30000 ng·h/mL and over

>>> df
                               entry_smiles  label_value
0  Cn1cc(-c2cc(-c3ccc(N4CCN(Cc5cccc(S(C)(=O)=O)c5)CC4)nc3)c3c(C#N)cnn3c2)cn1        bin 0
1  CS(=O)(=O)c1ccc(CN2C3CC2CN(c2ccc(-c4cc(-c5cnn(C(F)F)c5)cn5ncc(C#N)c45)cn2)C3)cc1        bin 1
2  CS(=O)(=O)c1ccc(CN2C3CC2CN(c2ccc(-c4cc(-c5cnn(C(F)(F)F)c5)cn5ncc(C#N)c45)cn2)C3)cc1        bin 1
3  COc1ccc(CN2C3CC2CN(c2ccc(-c4cc(N5CC(C)(O)C5)cn5ncc(C#N)c45)cn2)C3)cn1        bin 1
4  CSc1ccc(CN2C3CC2CN(c2ccc(-c4cc(-c5cnn(C(F)F)c5)cn5ncc(C#N)c45)cn2)C3)cn1        bin 1
5  CSc1ccc(CN2CCN(c3ccc(-c4cc(-c5cnn(C)c5)cn5ncc(C#N)c45)cn3)CC2)cn1        bin 1
6  COc1ccc(CN2CCN(c3ccc(-c4cc(N5CC(F)(F)C5)cn5ncc(C#N)c45)cn3)CC2)cn1        bin 2
7  Cn1cc(-c2cc(-c3ccc(N4CCN(Cc5ccc(S(C)(=O)=O)cc5)CC4)nc3)c3c(C#N)cnn3c2)cn1        bin 2
8  CSc1ccc(CN2CCN(c3ccc(-c4cc(-c5cnn(C)c5)cn5ncc(C#N)c45)cn3)CC2)nc1        bin 0
